Test system: 931267-113-T-J1-PDC KRAS spheroid with HUVEC/MSC, viability;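 also: compound exposure lasted 7 days before the readout; 100% = DMSO vehicle control viability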
Test: Anticancer human tumor 931267-113-T-J1-PDC patient-derived colon adenocarcinoma cell line growth inhibition [KRAS2]
Conditions: second compound 0.0316 µM; first compound 0.0316 µM; hits give low values
Excerpt: Multicellular complex tumor spheroid response to RAS pathway inhibitors in combination with a targeted agents in patient-derived cell lines with oncogenic KRAS variants from multiple cancer types A high-throughput screen of multi-cell type tumor spheroids was designed to identify active combinations of targeted small molecules and KRAS pathway inhibitors. […] Compounds. […] If the clinical Cmax for an agent had not been determined, the highest concentration tested was 10 microM. […]
observation-type: viability, T/C

>>> meas_value("CC(=O)OC12COC1CC(O)C1(C)C(=O)C(O)C3=C(C)C(OC(=O)C(O)C(NC(=O)OC(C)(C)C)c4ccccc4)CC(O)(C(OC(=O)c4ccccc4)C21)C3(C)C (stereo not drawn) + C=CC(=O)N1CCN(c2nc(OCC3CCCN3C)nc3c2CCN(c2cccc4cccc(C)c24)C3)CC1CC#N")
"86.6%"
>>> meas_value("COc1cc2nccc(Oc3ccc(NC(=O)C4(C(=O)Nc5ccc(F)cc5)CC4)cc3)c2cc1OC + C=CC(=O)N1CCN(c2nc(OCC3CCCN3C)nc3c2CCN(c2cccc4cccc(C)c24)C3)CC1CC#N")
"107%"
>>> meas_value("CC1COCCN1c1cc(-c2ccnn2C)c2ccnc(-c3ccn[nH]3)c2n1 (stereo not drawn) + C=CC(=O)N1CCN(c2nc(OCC3CCCN3C)nc3c2CCN(c2cccc4cccc(C)c24)C3)CC1CC#N")
"59%"
